studyTarget: human ALK5 (Homo sapiens (Human))
Sequence (P36897 80-503 limits assumed): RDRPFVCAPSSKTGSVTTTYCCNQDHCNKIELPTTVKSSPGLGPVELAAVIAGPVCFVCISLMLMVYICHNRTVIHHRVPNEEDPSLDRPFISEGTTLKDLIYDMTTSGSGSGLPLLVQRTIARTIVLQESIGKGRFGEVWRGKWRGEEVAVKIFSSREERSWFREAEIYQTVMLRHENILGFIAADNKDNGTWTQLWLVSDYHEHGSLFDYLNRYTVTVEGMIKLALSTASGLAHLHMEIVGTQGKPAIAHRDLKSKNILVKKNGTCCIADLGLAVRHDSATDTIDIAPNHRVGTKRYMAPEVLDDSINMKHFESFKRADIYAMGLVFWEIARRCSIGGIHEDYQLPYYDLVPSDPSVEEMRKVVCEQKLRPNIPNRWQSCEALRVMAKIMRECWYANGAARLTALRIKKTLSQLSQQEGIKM
testSummary: ADP-GLO Kinases assay, inhibition of ALK5 enzymatic activity
Assay type: biochemical
statedConditions: Table 4; potency bins; purified recombinant human ALK5, ADP-Glo, 25° C.; read-out: ALK5 IC50
pIC50: −log10 of the molar value.
Form field: pIC50 (one value per entry).

Field: example entries. Status: answers known.
compound="COC(=O)CC1CN(CCC(=O)Nc2cc(N3CCOc4cnc(-c5cc(Cl)ccc5F)cc43)ccn2)CCN1C (stereo not drawn)" measurement="> 9.00"
compound=CN1CCN(CCC(=O)Nc2cc(N3CCOc4cnc(-c5cc(Cl)ccc5F)cc43)ccn2)CC1=O measurement="> 9.00"
compound=O=C(CCN1CCN(CCO)CC1)Nc1cc(N2CCOc3cnc(-c4cc(Cl)ccc4F)cc32)ccn1 measurement="> 9.00"
compound=Cc1ccc(F)c(-c2cc3c(cn2)OCCN3c2ccnc(N)c2)c1 measurement="8.00 to 8.30"
compound="COC(=O)CC1CN(C)CCN1CCC(=O)Nc1cc(N2CCOc3cnc(-c4cc(Cl)ccc4F)cc32)ccn1 (stereo not drawn)" measurement="> 9.00"

## Task Query (compound): COC(=O)C1CN(C)CCN1CCC(=O)Nc1cc(N2CCOc3cnc(-c4cc(Cl)ccc4F)cc32)ccn1 (stereo not drawn) ; field requested: pIC50
## Result > 9.00

## Task // pIC50 lookup, key: CN1CCN(CCC(=O)Nc2cc(N3CCOc4c3cc(-c3cc(Cl)ccc3F)nc4C(=O)O)ccn2)CC1
## Result 8.30 to 9.00

## Task Fill in: pIC50 of O=C(CCN1CCNCC1)Nc1cc(N2CCOc3cnc(-c4cc(Cl)ccc4F)cc32)ccn1 is ___
## Result > 9.00

## Task I'd like to know its pIC50. The compound in question is CN1CCN(CC(=O)Nc2cc(N3CCOc4cnc(-c5cc(Cl)ccc5F)cc43)ccn2)CC1
## Result > 9.00

These data points were gathered from patent US20240116947A1.
